# reported TGI; entries follow
Test system: HCC-2998 colon
Assay overview: NCI tumour cell line growth inhibition, 48 h

Check out these entries, answers already filled in.
CC1CC#CCOC(=O)CCCC1=O (stereo unspecified) = > 100 µM
N=C1N(S(=O)(=O)c2ccccc2)[C@@H](Cc2ccccc2)[C@H](c2ccccc2)C1(c1ccccc1)c1ccccc1 = > 100 µM
C1C[OH+]CC[OH+]CCNCC[OH+]CC[OH+]CCN1.[Cl-].[Pt+4] = > 100 µM
Cc1ccc(/C(=N\N=C(N)N)c2ccccc2)cc1 = 0.677 µM

### Prompt Which value of TGI has been reported for "CC(=O)/C(=C/n1c(=S)[nH]c2ccccc21)C(=O)Nc1ccccc1C" in the records?
### Response > 100 µM

### Prompt Quick check: TGI of "CCCCCCCCCCCCCCN" ?
### Response > 100 µM
